Assay: Primary qHTS for delayed death inhibitors of the malarial parasite plastid, 48 hour incubation
Settings: P. falciparum luciferase growth in erythrocytes; series mostly up to 28.7 µM
Source text: The goal of this screen is to discover new antimalarial compounds that act by inhibiting the development of the apicoplast in the malarial parasite Plasmodium falciparum. […] We have developed a cell-based assay that measures parasite growth based on the expression of an integrated copy of a firefly luciferase reporter. […] Growth inhibition is detected by a decrease in luciferase activity. […]
In all, about 310,000 compounds went through this assay and about 18,000 (5.8%) were called active. Roughly 22% stayed inconclusive and do not appear here. Calls come from the whole dose curve; as a rule, active = well fitted inhibition curve with a large enough effect; inconclusive = small, poorly fitted or top-dose-only effect, or another doubt; inactive = no such curve, though single readings can be large or run the other way. The sample as a whole holds a higher share of actives than the screen did.
Give one outcome, nothing more. List: active, inactive

Observe how each entry below is paired with its result.
query: Any idea what this test logged for CC(OC(=O)C1CC(=O)N(Cc2ccccc2)C1)C(=O)Nc1ccccc1[N+](=O)[O-] (configuration not stated) ?
result: inactive

query: Any idea what this test logged for "O=C1CC2(CCN(C(=O)COc3ccc(F)cc3)CC2)Oc2ccccc21" ?
result: inactive

query: Any idea what this test logged for "COc1ccc2cc(S(=O)(=O)Nc3ccccn3)ccc2c1" ?
result: inactive

query: Any idea what this test logged for "CCNS(=O)(=O)c1ccc(CCC(=O)N2CCN(c3cc(Cl)ccc3C)CC2)cc1" ?
result: inactive

query: Any idea what this test logged for Cc1ccccc1N(C(=O)CNC(=O)c1cccs1)C(C(=O)NC1CCCC1)c1ccncc1 (configuration not stated) ?
result: inactive

New cases:
query: Any idea what this test logged for "Cc1ccc(-c2nn(-c3ccccc3)cc2/C=C2\SC(=S)N(CCCCCC(=O)O)C2=O)o1" ?
result: active

query: Any idea what this test logged for NC(=O)C1CCCN(CC(=O)N2CCN(c3ccccc3)CC2)C1 (configuration not stated) ?
result: inactive

query: Any idea what this test logged for Cc1cccc(C(C)C)c1NC(=O)COC(=O)C1CC(=O)N(Cc2ccccc2)C1 (configuration not stated) ?
result: inactive

query: Any idea what this test logged for "O=C(CCCN1C(=O)/C(=C/c2ccco2)SC1=S)Nc1ccccc1" ?
result: inactive

query: Any idea what this test logged for "COc1cc(OC)c(C(=S)N2CCCC2)cc1OC" ?
result: inactive
